molecular target: DNA; assay: Displacement of methyl green from DNA (unknown origin) assessed as DNA intercalation after 24 hrs by colorimetric assay; type: nucleic-acid assay
Hi! Could you tag entries with IC50 below 50 mg/L as true (1), and those at or above as false (0)? Much appreciated.

molecule | assigned class
CCOC(=O)C1=CSC2=NC(/C=C/c3ccc(C)cc3)=CC(c3ccc(C)cc3)N12 (centres undefined) | true (1)

Does the reported IC50 of the following molecule sit strictly below 50 mg/L? COc1ccc(/C=C/C2=CC(c3ccc(OC)cc3)N3C(C)=CSC3=N2)cc1 (centres undefined)
true (1)

---

test system: NCI-H522; experiment: Growth inhibition of human NCI-H522 cells at 10 uM relative to control; format: functional; settings: read-out: GI
result type: inhibition of growth at 10 µM (%)
Answers are plain numbers, in %.

compound | unit text | inhibition of growth at 10 µM
CC1=CN2C(=NC(/C=C/c3ccc(C)cc3)=CC2c2ccc(C)cc2)S1 (stereo unspecified) | % | 10.9
CC1=CSC2=NC(/C=C/c3cccs3)=CC(c3cccs3)N12 (stereo unspecified) | % | 13.3
COc1cc(/C=C/C2=CC(c3cc(OC)c(OC)c(OC)c3)N3C(C)=CSC3=N2)cc(OC)c1OC (stereo unspecified) | % | 14.5
CCOC(=O)C1=CSC2=NC(/C=C/c3ccc(OC)c(OC)c3)=CC(c3ccc(OC)c(OC)c3)N12 (stereo unspecified) | % | 12

Now let's try a different one.
Look up inhibition of growth at 10 µM for this compound: CCOC(=O)C1=CSC2=NC(/C=C/c3cc(OC)c(OC)c(OC)c3)=CC(c3cc(OC)c(OC)c(OC)c3)N12 (stereo unspecified)
47.8
